Source listed as patent US12624004B2.

Each item that follows carries a reported inhibition at 1 µM.
target: δ opioid receptor (Homo sapiens, UniProt P41143); construct: expressed in transfected cells; host or cells: CHO cells (membranes); test: Competition binding assay on membranes of CHO cells expressing δ opioid receptor, [3H]-labeled ligand; conditions: 0.5 h; Table 5-1; 1 μM concentration of compound; read-out: δOR Combination rate (%)
Structures can show the parent of a compound that is named as a salt.
outcome.measure: inhibition at 1 µM (%)

> print(dat)
                                    molecule     outcome.measure  meas.value
 1  COc1cccc(C2(O)CCN(C(=O)c3cc(F)c(F)cc3F)CC2CN(C)C)c1.Cl (stereo not shown) [FWBE5, hydrochloride]  inhibition at 1 µM           7
 2  COc1cccc(C2(O)CCN(C(=O)Cc3cccs3)CC2CN(C)C)c1.Cl (stereo not shown) [FWBE8, hydrochloride]  inhibition at 1 µM        18.7
 3  COc1cccc(C2(O)CCN(C(=O)Cn3cnnn3)CC2CN(C)C)c1.Cl (stereo not shown) [FWBE7, hydrochloride]  inhibition at 1 µM         8.9
 4  COc1cccc(C2(O)CCN(C(=O)Cc3cccc(OC(F)(F)F)c3)CC2CN(C)C)c1.Cl (stereo not shown) [FWBE6, hydrochloride]  inhibition at 1 µM        13.2
 5  COc1cccc(C2(O)CCN(C(=O)Cc3ccccc3Cl)CC2CN(C)C)c1 (stereo not shown) [FWBE20, hydrochloride]  inhibition at 1 µM           0
 6  COc1cccc(C2(O)CCN(C(=O)Cc3ccc(Cl)cc3)CC2CN(C)C)c1.Cl (stereo not shown) [FWBE19, hydrochloride]  inhibition at 1 µM           0
 7  COc1cccc(C2(O)CCN(C(=O)C3(c4ccccc4)CCCCC3)CC2CN(C)C)c1.Cl (stereo not shown) [FWBE27, hydrochloride]  inhibition at 1 µM        93.6
 8  COc1cccc(C2(O)CCN(C(=O)Cc3cccc(C#N)c3)CC2CN(C)C)c1.Cl (stereo not shown) [FWBE21, hydrochloride]  inhibition at 1 µM        25.4
 9  COc1cccc(C2(O)CCCCC2CN(C)C)c1 (stereo not shown) [Tramadol, reference compound]  inhibition at 1 µM           0
10  COc1cccc(C2(O)CCN(C(=O)Cc3cc(F)c(F)cc3F)CC2CN(C)C)c1.Cl (stereo not shown) [FWBE18, hydrochloride]  inhibition at 1 µM           0

---

target: δ opioid receptor (Homo sapiens, UniProt P41143); construct: expressed in transfected cells; host or cells: CHO cells (membranes); assay: Competition binding assay on membranes of CHO cells expressing δ opioid receptor, [3H]-labeled ligand; conditions: 0.5 h; Table 1-1; 10 μM concentration of compound; read-out: δOR Binding rate (%)
Structures can show the parent of a compound that is named as a salt.
Each item that follows carries a reported inhibition at 10 µM.
outcome.measure: inhibition at 10 µM (%)

> print(dat)
                                   compound      outcome.measure  meas.value
1  COc1cccc(C2(OC(=O)c3ccccc3)CCC(N(C)S(=O)(=O)Cc3cccc(Cl)c3)CC2CN(C)C)c1 (centres unmarked)  inhibition at 10 µM         4.8
2  COc1cccc(C2(O)CCC(S(=O)(=O)Cc3ccccc3)CC2CN(C)C)c1 (centres unmarked) [hydrochloride]  inhibition at 10 µM          44
3  COc1cccc(C2(OC(=O)c3ccccc3)CCC(NS(=O)(=O)c3ccccc3)CC2CN(C)C)c1 (centres unmarked)  inhibition at 10 µM        17.4
4  COc1cccc(C2(O)CCC(N(C)S(=O)(=O)c3cccs3)CC2CN(C)C)c1 (centres unmarked) [hydrochloride]  inhibition at 10 µM           0
5  COc1cccc(C2(O)CCC(N(Cc3ccccc3)S(=O)(=O)c3cccs3)CC2CN(C)C)c1 (centres unmarked) [hydrochloride]  inhibition at 10 µM           0
6  COc1cccc(C2(O)CCC(NS(=O)(=O)c3ccccc3)CC2CN(C)C)c1 (centres unmarked) [hydrochloride]  inhibition at 10 µM          38
7  COc1cccc(C2(O)CCC(NS(=O)(=O)c3cccc(Cl)c3)CC2CN(C)C)c1 (centres unmarked)  inhibition at 10 µM        14.5
8  COc1cccc(C2(O)CCCCC2CN(C)C)c1 (centres unmarked) [Tramadol, reference compound]  inhibition at 10 µM           0

---

target: κ opioid receptor (Homo sapiens); construct: expressed in transfected cells; host or cells: CHO cells (membranes); test: Competition binding assay on membranes of CHO cells expressing κ opioid receptor, [3H]-labeled ligand; conditions: Table 5-1; read-out: κOR Ki
Each item that follows carries a reported Ki.
outcome.measure: Ki (µM)

> print(dat)
                                    compound  outcome.measure  meas.value
 1  COc1cccc(C2(O)CCN(C(=O)Cc3cccc(Cl)c3)CC2CN(C)C)c1.Cl (stereo not drawn) [FWBE9, hydrochloride]               Ki        1.01
 2  COc1cccc(C2(O)CCN(C(=O)Cn3ccc4ccccc43)CC2CN(C)C)c1.Cl (stereo not drawn) [FWBE14, hydrochloride]               Ki        4.05
 3  COc1cccc(C2(O)CCN(C(=O)C3(c4ccccc4)CCCCC3)CC2CN(C)C)c1.Cl (stereo not drawn) [FWBE27, hydrochloride]               Ki      0.0307
 4  COc1cccc(C2(O)CCN(C(=O)Cc3ccc4ccccc4c3)CC2CN(C)C)c1.Cl (stereo not drawn) [FWBE15, hydrochloride]               Ki        2.65
 5  COc1cccc(C2(O)CCN(C(=O)Cc3ccc(Cl)c(Cl)c3)CC2CN(C)C)c1.Cl (stereo not drawn) [FWBE17, hydrochloride]               Ki       0.288
 6  COc1cccc(C2(O)CCN(C(=O)Cc3cc(C(F)(F)F)cc(C(F)(F)F)c3)CC2CN(C)C)c1.Cl (stereo not drawn) [FWBE1, hydrochloride]               Ki        4.42
 7  COc1cccc(C2(O)CCN(C(=O)C(C)(C)c3ccccc3)CC2CN(C)C)c1.Cl (stereo not drawn) [FWBE23, hydrochloride]               Ki      0.0444
 8  COc1cccc(C2(O)CCN(C(=O)Cc3cccc4ccccc34)CC2CN(C)C)c1.Cl (stereo not drawn) [FWBE16, hydrochloride]               Ki         1.7
 9  COc1cccc(C2(O)CCN(C(=O)Cc3c[nH]c4ccccc34)CC2CN(C)C)c1 (stereo not drawn) [FWBE13]               Ki         3.1
10  COc1cccc(C2(O)CCN(C(=O)Cc3cccc(C(F)(F)F)c3)CC2CN(C)C)c1.Cl (stereo not drawn) [FWBE4, hydrochloride]               Ki        3.03
11  COc1cccc(C2(O)CCN(C(=O)C3(c4ccccc4)CC3)CC2CN(C)C)c1.Cl (stereo not drawn) [FWBE24, hydrochloride]               Ki      0.0339
12  COc1cccc(C2(O)CCN(C(=O)C3(c4ccccc4)CCC3)CC2CN(C)C)c1.Cl (stereo not drawn) [FWBE25, hydrochloride]               Ki       0.205
13  COc1cccc(C2(O)CCN(C(=O)C3(c4ccccc4)CCCC3)CC2CN(C)C)c1.Cl (stereo not drawn) [FWBE26, hydrochloride]               Ki      0.0326
14  COc1cccc(C2(O)CCN(C(=O)Cc3cccc(F)c3)CC2CN(C)C)c1.Cl (stereo not drawn) [FWBE12, hydrochloride]               Ki        2.36
15  COc1cccc(C2(O)CCN(C(=O)Cc3cccc([N+](=O)[O-])c3)CC2CN(C)C)c1.Cl (stereo not drawn) [FWBE22, hydrochloride]               Ki        1.99

---

Each item that follows carries a reported inhibition at 10 µM.
molecular target: δ opioid receptor (Homo sapiens, UniProt P41143); construct: expressed in transfected cells; host or cells: CHO cells (membranes); assay: Competition binding assay on membranes of CHO cells expressing δ opioid receptor, [3H]-labeled ligand; conditions: 0.5 h; Table 1-1; 10 μM concentration of compound; read-out: δOR Binding rate (%)
Where a name gives a salt, the structure may show the parent alone.
outcome.measure: inhibition at 10 µM

> print(dat)
                                   compound  meas.value
1  COc1cccc(C2(O)CCC(NS(=O)(=O)c3cccs3)CC2CN(C)C)c1 (centres unmarked) [hydrochloride]          0%
2  COc1cccc(C2(OC(=O)c3ccccc3)CCC(N(C)S(=O)(=O)Cc3ccccc3)CC2CN(C)C)c1 (centres unmarked)       30.1%
3  COc1cccc(C2(O)CCC(CS(=O)(=O)c3ccccc3)CC2CN(C)C)c1 (centres unmarked) [hydrochloride]        9.3%
4  COc1cccc(C2(O)CCC(N(C)S(=O)(=O)c3ccccc3)CC2CN(C)C)c1 (centres unmarked) [hydrochloride]          0%
5  COc1cccc(C2(O)CCC(N(Cc3ccccc3)S(=O)(=O)c3ccccc3)CC2CN(C)C)c1 (centres unmarked)       9.53%
6  COc1cccc(C2(OC(=O)c3ccccc3)CCC(NS(=O)(=O)c3cccc(Cl)c3)CC2CN(C)C)c1 (centres unmarked)       18.8%
7  COc1cccc(C2(O)CCC(N(Cc3ccccc3)S(=O)(=O)c3cccc(Cl)c3)CC2CN(C)C)c1 (centres unmarked)        5.1%
8  COc1cccc(C2(O)CCC(N(C)S(=O)(=O)c3cccc(Cl)c3)CC2CN(C)C)c1 (centres unmarked) [hydrochloride]       13.8%
